Each entry below carries its reported pIC50.
Target: Human FAAH (MBPΔTMhFAAH) (Homo sapiens, UniProt O00519)
Sequence (O00519 30-579 limits assumed, stated change not applied): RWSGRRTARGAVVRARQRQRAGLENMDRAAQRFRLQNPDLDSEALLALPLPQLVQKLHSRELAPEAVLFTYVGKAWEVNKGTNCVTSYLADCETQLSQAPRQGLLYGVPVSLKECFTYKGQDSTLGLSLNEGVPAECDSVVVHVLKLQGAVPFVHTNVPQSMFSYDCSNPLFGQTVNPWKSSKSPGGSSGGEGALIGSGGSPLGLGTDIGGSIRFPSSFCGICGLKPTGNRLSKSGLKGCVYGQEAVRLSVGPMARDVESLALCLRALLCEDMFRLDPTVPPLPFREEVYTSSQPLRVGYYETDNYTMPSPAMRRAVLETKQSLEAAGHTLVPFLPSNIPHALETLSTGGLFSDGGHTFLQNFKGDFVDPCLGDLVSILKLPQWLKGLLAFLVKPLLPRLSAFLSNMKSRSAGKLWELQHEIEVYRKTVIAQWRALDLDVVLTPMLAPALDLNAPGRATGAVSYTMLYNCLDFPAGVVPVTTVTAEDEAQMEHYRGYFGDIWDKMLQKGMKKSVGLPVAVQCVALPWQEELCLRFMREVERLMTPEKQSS
Assay: Fluorescent assay protocol for hFAAH
Conditions: human FAAH (MBP fusion, ΔTM), procedure as for rFAAH
pIC50: −log10 of the molar value.
result_type: pIC50

>>> df
                                   molecule  result_type  experimental_result
0  N#Cc1cccc(-c2cccc(NC(=O)N3CCN(Cc4cccc(-c5ccccc5)c4)CC3)c2)c1        pIC50         7.00 to 8.00
1  O=C(Oc1cccc(Br)c1)N1CC(OCc2ccc(Cl)cc2)C1        pIC50         7.00 to 8.00
2  O=C(N1C[C@@H]2C[C@H]1CN2Cc1cccc(-c2ccccc2)c1)n1cnc(-c2ccccc2)c1        pIC50         6.00 to 6.96
3  CC1CN(C(=O)n2cnc(-c3ccccc3)c2)CCN1c1ccccc1 (stereo not drawn)        pIC50         6.00 to 6.96
4  C[C@H]1CN(Cc2cccc(Oc3ccccc3)c2)CCN1C(=O)n1cnc(Br)c1        pIC50         6.00 to 6.96
5  N#Cc1cccc(OC(=O)N2CCC(C(c3ccccc3)c3ccccc3)CC2)c1        pIC50         7.00 to 8.00
6  N#Cc1cccnc1OC(=O)N1CCN(C2c3ccccc3-c3ccccc32)CC1        pIC50               < 6.00
7  O=C(Oc1ccc(Cl)cc1Cl)N1CC(OCc2ccc(Cl)cc2)C1        pIC50         7.00 to 8.00
8  NC(=O)c1cccc(-c2cccc(NC(=O)N3CCN(c4ccccn4)CC3)c2)c1        pIC50         7.00 to 8.00

----------
Each entry below carries its reported IC50.
Biological target: Rat MAGL (rMAGL) (Rattus norvegicus, UniProt Q8R431)
Construct: made in house; host or cells: E. coli
Sequence (Q8R431 whole entry): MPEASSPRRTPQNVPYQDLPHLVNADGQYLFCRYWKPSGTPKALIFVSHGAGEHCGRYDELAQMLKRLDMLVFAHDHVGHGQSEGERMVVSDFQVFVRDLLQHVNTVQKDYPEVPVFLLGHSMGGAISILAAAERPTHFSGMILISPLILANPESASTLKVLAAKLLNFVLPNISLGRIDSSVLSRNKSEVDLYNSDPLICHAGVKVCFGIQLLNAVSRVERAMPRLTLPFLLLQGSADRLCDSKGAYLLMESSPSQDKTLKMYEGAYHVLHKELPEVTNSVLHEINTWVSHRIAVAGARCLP
Assay: Fluorescent assay protocol for rMAGL
Format: biochemical
Conditions: recombinant rat MAGL, procedure as for hMAGL; read-out: IC50 rMAGL
result_type: IC50

In [3]: df
Out[3]:
                                   molecule  experimental_result
0  Cc1ccc(S(=O)(=O)N2CCN(C(=O)Oc3ccc(-c4ccc(F)cc4)cc3O)CC2)cc1 [Example 66]         10 to 100 nM
1  C[C@@H]1CN(C(=O)Nc2cccc(-c3cccc(C(N)=O)c3)c2)CCN1Cc1ccc2ccccc2n1 [Example 2]            > 1000 nM
2  O=C(Nc1cccc(Oc2ccccc2)c1)N1CCN(Cc2ccc3ccccc3n2)CC1 [Example 14]            > 1000 nM
3  N#Cc1ccnc(OC(=O)N2CCN(C3c4ccccc4-c4ccccc43)CC2)c1 [Example 42]         10 to 100 nM
4  O=C(N1CC(Sc2ccc(Br)cc2)C1)n1cncn1 [Example 91]         10 to 100 nM
5  N#Cc1cccc(-c2cccc(NC(=O)N3C[C@@H]4C[C@H]3CN4Cc3ccc4ccccc4n3)c2)c1 [Example 93]            > 1000 nM
6  O=C(Oc1cccc(-c2cccnc2)c1)N1CC(OCc2ccc(Cl)cc2)C1 [Example 80]            > 1000 nM
7  NC(=O)c1cccc(-c2cccc(NC(=O)N3CCN(c4ccccn4)CC3)c2)c1 [Example 9]            > 1000 nM
